Tested on: HCT-15 colon
Test: NCI-60 one-dose screen, 48 h
Conditions: 10 µM unless noted
About 83,000 compounds went through this panel and 20% of them were active in at least one assay; those are over-represented in the sample as a whole. The source made the active and inactive calls. The calls were made as follows: active = growth percent below 10; inactive = the rest.
Pick one: active, inactive

// query Status in this test for "Cc1ccccc1-n1nnc(C(=O)Nc2nc3ccc(F)cc3s2)c1C" ?
// result inactive

// query Entry "O=C(O)c1cn(C2CC2)c2cc(N3CCN(Cc4c(O)ccc5ccccc45)CC3)c(F)cc2c1=O" : call = ?
// result active

// query Recorded test call requested for "c1ccc2c(c1)CN(CCCN1CCOCC1)C2"
// result inactive

// query Entry "COC(=O)[C@H](CC(C)C)NC(=O)NC(=O)NC(=O)CI" : call = ?
// result active

// query Record request — test call for "CCN(CC)CCCCCCNc1cccc2cc(Br)cnc12"
// result inactive

// query Entry "COc1ccc2nc3ccccc3c(NCCNCCO)c2c1" : call = ?
// result inactive

// query Could you kindly confirm the outcome this assay logged for "O=S(=O)(NCCNc1nccc(-c2c(-c3cccc(F)c3)nc3occn23)n1)c1ccc(C(F)(F)F)cc1" ?
// result inactive

// query Outcome? "C=C(C)[C@@H]1CC[C@]2(C(=O)NCCCCCCN(CCCN)CCCN)CC[C@]3(C)[C@H](CC[C@@H]4[C@@]5(C)CC[C@H](OCCCN)C(C)(C)[C@@H]5CC[C@]43C)[C@@H]12"
// result inactive

// query Outcome logged for "Cn1cc(-c2noc(-c3cn(C)c4ncc(F)cc34)n2)c2cc(Cl)ccc21" in this assay:
// result inactive

// query Any idea what this test logged for "N#C/C(=C(/O)CCCO)c1nc2ccccc2c(=O)[nH]1" ?
// result inactive

// query So what was the verdict on "CCCCCCNC(=O)Nc1ncnc2c1ncn2-c1ccccc1" in this test?
// result inactive

// query // outcome(item) with item = "COc1ccc2nc3cc(Cl)ccc3c(Nc3ccc(O)c(CN4CCCC4)c3)c2c1"
// result active

// query Tell me the recorded outcome of this test for CC1Cc2c(ncnc2-n2cnc3ccccc32)N(C)c2ccccc21 (stereo not drawn) .
// result inactive

// query Would you mind telling me which call this test gave "Cc1c(Cn2cc(COc3ccc(Br)cc3)nn2)c(C)c(Cn2cc(COc3ccc(Br)cc3)nn2)c(C)c1Cn1cc(COc2ccc(Br)cc2)nn1" ?
// result inactive

// query What was the test verdict on "CC[C@@H]1NC(=O)[C@@H]2CCCCN2C(=O)[C@@H]2CCCN2C(=O)[C@@H](NC(=O)[C@H](Cc2cc(F)cc(F)c2)NC(=O)Nc2ccc(C3CC3)cc2F)[C@H](C)OC(=O)[C@@H]2C[C@@H](C)CN2C1=O" ?
// result active

// query What was the test verdict on "CC1(C)C(=O)/C(=C\c2cccnc2)C[C@]2(C)[C@H]3CC[C@@H]4[C@H]5[C@H](C(=O)/C=C/c6cccnc6)CC[C@]5(C(=O)O)CC[C@@]4(C)[C@]3(C)CC[C@@H]12" ?
// result active

// query Tell me the recorded outcome of this test for "Cc1cc2c(C(C)C)c(O)c(O)c(C=NCc3ccoc3)c2c(O)c1-c1c(C)cc2c(C(C)C)c(O)c(O)c(C=NCc3ccco3)c2c1O" .
// result inactive

// query For "COC(=O)C(=Cc1ccccc1[N+](=O)[O-])C(=O)OC" , which call appears in the assay record?
// result inactive

// query Answer briefly: the call reported for "CC(C)=CCC[C@](C)(O)[C@H]1CC[C@]2(C)[C@@H]1CC[C@@H]1[C@@]3(C)CC[C@H](OC(=O)CCC(=O)O)C(C)(C)[C@@H]3CC[C@]12C" in this assay.
// result inactive

// query So what was the verdict on "COC(=O)c1c(C)[nH]c(/C=C2\N=C(c3ccc[nH]3)C=C2OC)c1C" in this test?
// result active

// query Called result for "CCN1CCN(CC(=O)Nc2nc3ccc(NCc4ccc(Cl)cc4)cc3s2)CC1"
// result active

// query Test call, this compound: "COc1cc2c(cc1OCCCN1CCN(CCCOc3cc4c(cc3OC)C(=O)N3C[C@H](F)C[C@H]3C=N4)CC1)N=C[C@@H]1C[C@@H](F)CN1C2=O"
// result inactive

// query Lab log entry: "C[n+]1cccc(NC(=O)c2ccc3ccc4ccc(C(=O)Nc5ccc[n+](C)c5)nc4c3n2)c1" — outcome as called in the assay?
// result inactive

// query Name the outcome recorded for "CC(C)CSc1ncnc2nc[nH]c12" in the assay.
// result inactive

// query Assay result, entry "c1coc2occoc=2o1" — outcome?
// result inactive

// query Each compound tested received a call. Report the one for "O=C(CCCCCCSc1nc(-c2ccc(Cl)cc2)cc(-c2ccc(Cl)cc2)n1)NO" .
// result inactive

// query Test call for this compound, please: "CCN(CC)c1ccc(/C=C/C=C2\NC(=O)NC2=O)cc1"
// result inactive

// query Record lookup: outcome of this test for "CSc1nc(N)c(N=Nc2ccc(S(=O)(=O)Nc3nnc(C)s3)cc2)c(=O)[nH]1" ?
// result inactive

// query Dear all, I need the recorded test outcome for "CC(C)C1=NOC(=O)C1=Cc1cn(-c2ccco2)nc1-c1ccccc1" , thank you.
// result inactive

// query Per the records of this test, what outcome belongs to "O=C(NCc1ccccc1)C(Cl)Cl" ?
// result inactive

// query Record lookup: outcome of this test for "COc1cc(/C=C/C(=O)/C=C/c2ccc(-n3ccnc3C)cc2)ccc1O" ?
// result inactive

// query Dear all, I need the recorded test outcome for COc1ccc(C2CC(c3cc(OC)c(OC)c(OC)c3)=NN2C(C)=O)cc1OCC(=O)Nc1nc2ccc(C(F)(F)F)cc2s1 (stereo not drawn) , thank you.
// result inactive

// query Fill in: this test's call for "O=C1/C(=C/c2ccc(OCc3ccccc3)cc2)Oc2cc(OCCN3CCCCC3)ccc21" is ___
// result inactive

// query Assay outcome for O=C1CC(c2ccccc2)Cc2nc3ccc(Cl)cc3cc21 (stereo not drawn) : what was it?
// result inactive

// query What did the test return for "CCOc1cc(NC(=O)c2ccccc2)c(OCC)cc1N" ?
// result inactive

// query Lab log entry: N#Cc1ccc(-c2ccc(COc3ccc(CC4SC(=O)NC4=O)cc3)cc2)cc1 (stereo not drawn) — outcome as called in the assay?
// result inactive

// query Assay outcome for "O=C(O)c1cc([N+](=O)[O-])ccc1Br" : what was it?
// result inactive

// query Called result for "COc1ccc(/C=C(/C2=NCCN2)n2ccc3ccccc32)cc1"
// result inactive
